Every entry's value here was drawn from patent US20150266963A1.

Biological target: T1, recombinant human CD70 (Flag-TNC-CD70) (human, UniProt P32970 39-193)
T1 construct: extracellular domain; Captured by anti-Flag mAb in ELISA; as 'recombinant human CD70' immobilised on Biacore CM5 chips; TNC is for trimerisation; also called recombinant CD70; human recombinant CD70; not shown: Flag tag and TNC trimerisation domain
T1 sequence (looked up): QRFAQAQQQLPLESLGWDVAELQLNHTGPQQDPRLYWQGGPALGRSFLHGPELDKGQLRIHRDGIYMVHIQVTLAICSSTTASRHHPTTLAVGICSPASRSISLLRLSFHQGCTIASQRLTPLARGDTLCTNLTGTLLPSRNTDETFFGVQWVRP
Assay: Biacore; recombinant human CD70 on CM5 chip; Fab injected
METRIC: koff (s⁻¹)
Report the value in s⁻¹ with no unit label.

# annotated cases, reported koff shown
[
  {
    "BINDER": "19G10 Fab (Fab, V domains shown, Llama-derived Fab) VH: EVQLQESGGGVVQPGGSLRLSCAASGFTFDDYAMSWVRQAPGKGLEWVSSIYMYDSSTYYADSVKGRFTISTDNAKNTVYLQMNSLKSEDTAVYYCAKDINRSYGSSWSHFGPIFSSWGQGTQVTVSS VL: NFMLTQPSAVSVSLGQTARITCQGGYYTHWYQQKPGQAPVLVIYVNNNRPSGIPERFSGSSSGNTATLTISGAQAEDEAAYYCQSGSSSTIPVFGGGTKLTVLG",
    "READOUT UNIT": "s⁻¹",
    "koff": "8e-05"
  },
  {
    "BINDER": "33D8 Fab (Fab, V domains shown, Llama-derived Fab) VH: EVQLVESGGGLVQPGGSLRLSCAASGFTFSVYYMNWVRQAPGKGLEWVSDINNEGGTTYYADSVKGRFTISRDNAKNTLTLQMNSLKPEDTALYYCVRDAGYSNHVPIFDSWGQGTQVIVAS VL: QSALTQPSTVSVSLGQTARITCRGDSLERYGTNWYQQKPGQAPVLVIYDDDSRPSGIPERFSGSSSGATAALTISGAQAEDEGDYYCQSADSSGNAVFGGGTHLTVLG",
    "READOUT UNIT": "s⁻¹",
    "koff": 0.00045
  }
]

Problem: Item 27B3 Fab (Fab, V domains shown, Llama-derived Fab; also called Fab 27B3) VH: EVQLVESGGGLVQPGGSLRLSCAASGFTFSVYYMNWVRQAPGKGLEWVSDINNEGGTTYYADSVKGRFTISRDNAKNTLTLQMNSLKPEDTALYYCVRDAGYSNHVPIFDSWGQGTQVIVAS VL: QAVVTQEPSLTVSPGGTVTLTCGLKSGSVTSTNFPTWYQQTPGQAPRLLIYNTNTRHSGVPSRFSGSISENKAALTITGAQPEDEAEYFCALFISNPSVEFGGGTQLTVLS has what recorded koff?
Result: 8e-05
